All values here come from patent US20240254193A1.

assay target: TRAIL receptors
method description: cell-based or functional assay
quantity measured: EC50 measured by use of L929 cells (ng/mL)
Kindly provide the numeric value in ng/mL only, without the unit symbol.

In: Consider the binder super-TRAIL AX-1621, P50591 114-281 (ligand) VRERGPQRVAAHITGTRGRSNTLSSPNSKNEKALGRKINSWESSRSGHSFLSNLHLRNGELVIHEKGFYYIYSQTYFRFQEEIKENTKNDKQMVQYIYKYTSYPDPILLMKSARNSCWSKDAEYGLYSIYQGGIFELKENDRIFVSVTNEHLIDMDHEASFFGAFLVGGGGSGGVAAHITGTRGRSNTLSSPNSKNEKALGRKINSWESSRSGHSFLSNLHLRNGELVIHEKGFYYIYSQTYFRFQEEIKENTKNDKQMVQYIYKYTSYPDPILLMKSARNSCWSKDAEYGLYSIYQGGIFELKENDRIFVSVTNEHLIDMDHEASFFGAFLVG and give its recorded EC50 measured by use of L929 cells.
Out: 0.95
